- protocol: Human liver microsome stability
- Assay type: in vitro ADME
- measurement.setup: pooled human liver microsomes 0.5 mg/mL, 1 μM compound, NADPH 1 mM, 37° C., 0-60 min

{"columns": ["compound", "HLM Metabolism t1/2"],
 "data": [
  ["CC(c1cnc(C(C)(C)O)nc1)N1C[C@@H](C)n2nc3c(c2C1=O)CN(C(=O)c1ccc(Cl)c(Cl)c1)[C@H](C)C3 (single isomer, unassigned) [Compound 36B]", ">3 h"],
  ["Cc1nnn(-c2ccc(C(C)N3C[C@@H](C)n4nc5c(c4C3=O)CN(C(=O)c3ccc(Cl)c(Cl)c3)[C@H](C)C5)cn2)n1 (single isomer, unassigned) [Compound 26B]", "1.13 h"],
  ["C[C@@H]1Cc2nn3c(c2CN1C(=O)c1ccc(Cl)c(C(F)(F)F)c1)C(=O)N([C@H](C)c1ccc([S@]2(=O)=NCCC2)nc1)C[C@H]3C (relative stereo) [Compound 30C]", "0.685 h"],
  ["CC(c1cnn(C)c(=O)c1)N1C[C@@H](C)n2nc3c(c2C1=O)CN(C(=O)c1ccc(Cl)c(C(F)(F)F)c1)[C@H](C)C3 (single isomer, unassigned) [Compound 52A]", "1.48 h"],
  ["CNC(=O)C(c1ccc(OC(F)F)cc1)N1C[C@@H](C)n2nc3c(c2C1=O)CN(C(=O)c1ccc(Cl)c(Cl)c1)[C@H](C)C3 (single isomer, unassigned) [Compound 23B]", ">3 h"],
  ["CC(c1cnc(N2CCOC[C@@H]2C)nc1)N1C[C@@H](C)n2nc3c(c2C1=O)CN(C(=O)c1ccc(Cl)c(C(F)(F)F)c1)[C@H](C)C3 (single isomer, unassigned) [Compound 38B]", "0.642 h"],
  ["C[C@@H]1Cc2nn3c(c2CN1C(=O)c1ccc(Cl)c(C(F)(F)F)c1)C(=O)N([C@H](C)c1ccc([S@@](C)(=O)=NC#N)cc1)C[C@H]3C (relative stereo) [Compound 20A]", ">3 h"],
  ["CC(c1cnn(C)c(=O)c1)N1C[C@@H](C)n2nc3c(c2C1=O)CN(C(=O)c1ccc(Cl)c(C(F)(F)F)c1)[C@H](C)C3 (single isomer, unassigned) [Compound 52B]", ">3 h"],
  ["C[C@@H]1Cc2nn3c(c2CN1C(=O)c1ccc(Cl)c(C(F)(F)F)c1)C(=O)N([C@@H](C)c1ccc([S@@](C)(=O)=NC#N)cc1)C[C@H]3C (relative stereo) [Compound 20C]", "1.02 h"],
  ["CC(c1cn(C2CC2)c(=O)cn1)N1C[C@@H](C)n2nc3c(c2C1=O)CN(C(=O)c1ccc(Cl)c(Cl)c1)[C@H](C)C3 (single isomer, unassigned) [Compound 56B]", "1.53 h"]
]}
